Kd: recorded values
- assayed_system: feline FcRn complex (FcRn-α subunit and β-microglobulin), biotin labeled (feline)
- test_summary: SPR, pH 6
readout: Kd (nM)

binder="feline IgG1a S428A (antibody, part only; not given: Variable domains, not shown: another chain or arm of the molecule) constant: ASTTAPSVFPLAPSCGTTSGATVALACLVLGYFPEPVTVSWNSGALTSGVHTFPAVLQASGLYSLSSMVTVPSSRWLSDTFTCNVAHPPSNTKVDKTVRKTDHPPGPKPCDCPKCPPPEMLGGPSIFIFPPKPKDTLSISRTPEVTCLVVDLGPDDSDVQITWFVDNTQVYTAKTSPREEQFNSTYRVVSVLPILHQDWLKGKEFKCKVNSKSLPSPIERTISKAKGQPHEPQVYVLPPAQEELSRNKVSVTCLIKSFHPPDIAVEWEITGQPEPENNYRTTPPQLDSDGTYFVYSKLSVDRSHWQRGNTYTCSVAHEALHSHHTQKSLTQSPGK" measurement_unit=nM recorded_value=119
binder="feline IgG1a T256R (antibody, part only; not given: Variable domains, not shown: another chain or arm of the molecule) constant: ASTTAPSVFPLAPSCGTTSGATVALACLVLGYFPEPVTVSWNSGALTSGVHTFPAVLQASGLYSLSSMVTVPSSRWLSDTFTCNVAHPPSNTKVDKTVRKTDHPPGPKPCDCPKCPPPEMLGGPSIFIFPPKPKDTLSISRRPEVTCLVVDLGPDDSDVQITWFVDNTQVYTAKTSPREEQFNSTYRVVSVLPILHQDWLKGKEFKCKVNSKSLPSPIERTISKAKGQPHEPQVYVLPPAQEELSRNKVSVTCLIKSFHPPDIAVEWEITGQPEPENNYRTTPPQLDSDGTYFVYSKLSVDRSHWQRGNTYTCSVSHEALHSHHTQKSLTQSPGK" measurement_unit=nM recorded_value=27.7
binder="feline IgG1a T256H (antibody, part only; not given: Variable domains, not shown: another chain or arm of the molecule) constant: ASTTAPSVFPLAPSCGTTSGATVALACLVLGYFPEPVTVSWNSGALTSGVHTFPAVLQASGLYSLSSMVTVPSSRWLSDTFTCNVAHPPSNTKVDKTVRKTDHPPGPKPCDCPKCPPPEMLGGPSIFIFPPKPKDTLSISRHPEVTCLVVDLGPDDSDVQITWFVDNTQVYTAKTSPREEQFNSTYRVVSVLPILHQDWLKGKEFKCKVNSKSLPSPIERTISKAKGQPHEPQVYVLPPAQEELSRNKVSVTCLIKSFHPPDIAVEWEITGQPEPENNYRTTPPQLDSDGTYFVYSKLSVDRSHWQRGNTYTCSVSHEALHSHHTQKSLTQSPGK" measurement_unit=nM recorded_value=87.4
binder="feline IgG1a S428E (antibody, part only; not given: Variable domains, not shown: another chain or arm of the molecule) constant: ASTTAPSVFPLAPSCGTTSGATVALACLVLGYFPEPVTVSWNSGALTSGVHTFPAVLQASGLYSLSSMVTVPSSRWLSDTFTCNVAHPPSNTKVDKTVRKTDHPPGPKPCDCPKCPPPEMLGGPSIFIFPPKPKDTLSISRTPEVTCLVVDLGPDDSDVQITWFVDNTQVYTAKTSPREEQFNSTYRVVSVLPILHQDWLKGKEFKCKVNSKSLPSPIERTISKAKGQPHEPQVYVLPPAQEELSRNKVSVTCLIKSFHPPDIAVEWEITGQPEPENNYRTTPPQLDSDGTYFVYSKLSVDRSHWQRGNTYTCSVEHEALHSHHTQKSLTQSPGK" measurement_unit=nM recorded_value=184
